system: HOP-92 NSCLC; experiment: NCI-60 one-dose screen, 48 h; conditions: 10 µM unless noted
Compounds without any hit were thinned out: in the full panel of roughly 83,000, 20% have a hit. Active and inactive are the calls of the source. The calls were made as follows: active = growth percent below 10; inactive = the rest.
Just give me one of these, please: 1 (yes) (active), 0 (no) (inactive)

The examples below pair each entry with its known result.
Ask | Hi, sorry to bother you, what did the test record for FC(F)(F)c1cccc(-c2cn3c(ccc4ccccc43)n2)c1 ?
Reply | 0 (no)

Ask | Now consider CCN(CC)CCC(CNc1ccnc2cc(Cl)ccc12)c1ccc(Cl)cc1 (stereo not drawn) and answer again.
Reply | 1 (yes)

Now for another entry.
Ask | Hi, sorry to bother you, what did the test record for CN1CCN(Cc2ccc(NC(=O)c3cncc(C#Cc4cnc(N)c5cnccc45)c3)cc2C(F)(F)F)CC1 ?
Reply | 1 (yes)
